system: SNB-75 CNS; assay: NCI tumour cell line growth inhibition, 48 h
MEASURE: TGI

TGI for "O=C(/C=C\n1cnc(-c2cc(C(F)(F)F)cc(C(F)(F)F)c2)n1)N1CC(F)(F)C1" ?
6.44 µM

Now the same for "[N-]=[N+]=Nc1ccc2c(c1)Sc1ccccc1N2CCCCN1CCN(C(=O)CCNC(=O)Cc2ccc(C(=O)c3ccccc3)cc2)CC1"
> 24.4 µM

Now the same for "O=c1[nH]c(=O)n([C@@H]2O[C@H](CO)[C@@H](O)[C@@H]2F)cc1I"
> 100 µM

Now the same for "Cc1cccc(Nc2cc(Cl)nc(SCC(=O)O)n2)c1C"
> 100 µM

Now the same for CC(C)=C1CCC(CN2CCOCC2)C1=O (stereo not given)
18 µM

Now the same for "O=c1c2cccnc2ncn1CCCN1CCCC1"
> 100 µM

Now the same for O=C(Oc1ccccc1)C(Br)C(Br)c1ccccc1 (stereo not given)
30.1 µM

Now the same for "COc1cc(-c2nccc3cc4c(cc23)OCO4)cc(OC)c1OC"
79.7 µM

Now the same for "CC/C(Cc1ccccc1)=C(/c1ccc(O)cc1)c1ccc(OCCN2CCCC2)cc1"
2.98 µM

Now the same for "CCOC(=O)C#Cc1c(C(=O)OCC)nnn1[C@@H]1O[C@H](CO)[C@H]2OC3(CCCCC3)O[C@H]21"
24.2 µM

* * *

test system: SN12C renal; assay: NCI tumour cell line growth inhibition, 48 h
MEASURE: GI50

GI50 for "Cc1ccc(O)c(NC2=C(Cl)C(=O)N(Cc3ccccc3)C2=O)c1" ?
14.9 µM

Now the same for "O=C([CH-]C(=O)c1ccccc1)c1ccccc1.O=C([CH-]C(=O)c1ccccc1)c1ccccc1.O=C([CH-]C(=O)c1ccccc1)c1ccccc1.[Cl-].[Zr+4]"
35.9 µM

Now the same for "Oc1c(O)c(Cl)c(Cl)c(Cl)c1Cl"
3.79 µM

Now the same for "Cn1cc(C2=C(c3ccccc3C(F)(F)F)C(=O)NC2=O)c2ccccc21"
9.73 µM

Now the same for "Nc1nc2c(ccc3ccccc32)s1"
> 100 µM

Now the same for "Cc1noc(C)c1-c1cnc2c(-c3ccc(C(=O)O)cc3)cn([C@@H](C)c3ccccn3)c2c1"
2.99 µM

Now the same for COc1cc(CN(c2ccc(C)cc2)C2OC(=O)c3ccccc32)cc(OC)c1OC (stereo not drawn)
0.854 µM

Now the same for "COc1ccc2c(c1)O/C(=C\c1cccc(OCC(=O)Nc3nc(C)c(C)s3)c1)C2=O"
2 µM

* * *

Record form. Attribute: TGI. Fill in for each entry.
system: HOP-62 NSCLC; assay: NCI tumour cell line growth inhibition, 48 h
Note: unit µM is implicit; provide only the numeric part.

TGI for "Cc1c(C)c2c(c(C)c1OCC(=O)O)CC[C@@](C)(CCC[C@@H](C)CCC[C@@H](C)CCCC(C)C)O2" ?
161

Now the same for O=C(Oc1ccccc1)C(Br)C(Br)c1ccccc1 (stereo not drawn)
28.3

Now the same for "c1cc[c]([Sn]([O]c2cccc3cccnc23)([O]c2cccc3cccnc23)[c]2ccccc2)cc1"
17.9

Now the same for "COC[C@H]1C(=O)NCC(=O)N2N=CCC[C@H]2C(=O)N(O)[C@H](C)C(=O)O[C@@H](C(C)C)[C@H](NC(=O)[C@@](C)(O)[C@]2(O)CC[C@@H](CC(C)C)[C@H](C)O2)C(=O)N2NCCC[C@@H]2C(=O)N1O"
0.0322

Now the same for "CC1=C(C(=O)Nc2ccccc2)C(c2cc(Cl)cc(Cl)c2)C(C(=O)Nc2ccccc2)=C(C)N1"
31.1

Now the same for CC(CC[C@@]1(O)OC2C[C@H]3[C@@H]4CC[C@H]5CC(OC6OC(CO)C(OC7OC(CO)C(O)C(OC8OCC(O)C(O)C8O)C7OC7OC(CO)C(O)C(O)C7O)C(O)C6O)[C@H](O)CC5(C)[C@H]4CCC3(C)C2[C@@H]1C)COC1OC(CO)C(O)C(O)C1O (stereo partly drawn)
17.9

Now the same for "CN1CCN(CCCOc2cccc3nc(Nc4ccc(F)c(F)c4)ccc23)CC1"
5.34

* * *

Record form. Attribute: TGI. Fill in for each entry.
system: MDA-MB-231 breast; assay: NCI tumour cell line growth inhibition, 48 h

TGI for COc1ccc2oc(C(=O)N3CC(CCl)c4ccc(N)cc43)cc2c1 (stereo unspecified) ?
> 26.7 µM

Now the same for "Nc1nc2c(ccc3ccccc32)s1"
> 100 µM

Now the same for COc1ccc2c3c1OC1C(OC)(OC)CC4(C=C2)CN(C)CCC314 (stereo unspecified)
> 100 µM

Now the same for COc1ccc(-c2nsc3c2NC(=O)CC3c2cccc(Cl)c2)cc1 (stereo unspecified)
> 100 µM

Now the same for "Cc1ccc(O)c(NC2=C(Cl)C(=O)N(Cc3ccccc3)C2=O)c1"
32.3 µM

Now the same for "CCOc1cc(-c2nc3cc(F)ccc3s2)ccc1O"
48.4 µM

Now the same for "O=C(NC1(C(=O)O)CCCC1)c1ccccc1"
> 100 µM

Now the same for "Cc1nc(Sc2nc3ccc([N+](=O)[O-])cc3s2)sc1C"
11 µM

Now the same for CC1(C)OC2OC(COC(=O)c3ccc(C#N)cc3)C3OC(C)(C)OC3C2O1 (stereo unspecified)
> 75 µM

Now the same for "C1=NCCOCCN=Cc2ccc(cc2)OCc2cccc(n2)COc2ccc1cc2"
> 100 µM

Now the same for "COc1cc(-c2nccc3cc4c(cc23)OCO4)cc(OC)c1OC"
> 100 µM

* * *

system: RXF 393 renal; test: NCI tumour cell line growth inhibition, 48 h
MEASURE: TGI (µM)
Note: unit µM is implicit; provide only the numeric part.

TGI for "COc1cc(-c2cc3ncccc3c3[nH]c(=O)c4cccnc4c23)cc(OC)c1OC" ?
26.2

Now the same for C#C[C@]1(O)CC[C@H]2[C@@H]3CCC4=C/C(=N/OC(=O)c5cccc6c(=O)c7ccccc7[nH]c56)CCC4[C@H]3CC[C@@]21CC (some centres undefined)
12.6

* * *

system: MOLT-4 leukemia; test: NCI tumour cell line growth inhibition, 48 h
MEASURE: TGI (µM)
Note: unit µM is implicit; provide only the numeric part.

What reported TGI corresponds to "CC[n+]1c(/C=C/c2ccc(N(CCCl)CCCl)cc2)ccc2cc(I)ccc21" on MOLT-4 leukemia?
3.03

Now the same for "N#Cc1c(-c2ccc([N+](=O)[O-])cc2)cc(-c2ccc(Nc3ccnc4cc(Cl)ccc34)cc2)nc1N"
5.4

Now the same for "Cc1cn2c(/C=N/N=C(N)N)c(-c3ccncc3)nc2s1"
32.2

* * *

test system: KM12 colon; assay: NCI tumour cell line growth inhibition, 48 h
Record form. Attribute: TGI. Fill in for each entry.

What reported TGI corresponds to "C=CCn1c(-c2ccc(Cl)cc2)csc1=Nc1ccccc1OC" on KM12 colon?
> 100 µM

Now the same for "COc1ccc2c(c1OC)C(=O)O[C@@H]2[C@H]1c2c(cc3c(c2OC)OCO3)CCN1C"
> 100 µM

Now the same for "CCC(=O)C(C(=O)CC)c1c(OC(=O)c2ccccc2)ccc(O)c1C(=O)OC"
> 100 µM

Now the same for "CCN(CC)c1ccc(N=Nc2ccc(-c3nc4cccn(C)c-4n3)cc2)cc1"
24.9 µM

Now the same for "CC1=C(C(=O)Nc2ccccc2)C(c2cc(Cl)cc(Cl)c2)C(C(=O)Nc2ccccc2)=C(C)N1"
16.8 µM

Now the same for "Cc1cc2nnc(C(N)=O)c(N)c2cc1C"
> 100 µM

Now the same for "O=C(N/C(=C/c1cccc([N+](=O)[O-])c1)c1nc2ccc(Cl)cc2[nH]1)c1ccccc1"
31.1 µM

Now the same for "CCOC(=O)/C=C(/C(=O)OCC)n1ccc(=O)n(Cc2cnnn2CCCCOC(C)=O)c1=O"
> 100 µM

Now the same for "COc1ccc2[nH]c(C(=O)OCc3ccc4cccc(O)c4n3)cc2c1"
3.9 µM

Now the same for C=C(C)C(=O)OC1C[C@H](COC(C)=O)C2CC=C(CO)C2C2OC(=O)C(=C)[C@H]12 (stereo partly drawn)
> 100 µM

Now the same for COC(=O)C1(O)C(c2ccccc2)NC2(C)CCCC21 (stereo not drawn)
> 100 µM

Now the same for "C/C(O[Si](C(C)C)(C(C)C)C(C)C)=C(\C)C(=O)N(C)c1ccccc1Cl"
> 100 µM

Now the same for "O=C1C=C(Nc2ccc(S(=O)(=O)Nc3ncccn3)cc2)c2ccccc2C1=O"
38.6 µM

* * *

system: HOP-92 NSCLC; test: NCI tumour cell line growth inhibition, 48 h
MEASURE: GI50

GI50 for "Cc1c(C)c2c(c(C)c1OCC(=O)O)CC[C@@](C)(CCC[C@@H](C)CCC[C@@H](C)CCCC(C)C)O2" ?
58.6 µM

Now the same for COc1ccccc1C1C(C#N)=C(N)Oc2cc(O)ccc21 (centres undefined)
4.77 µM

Now the same for O=C1Nc2ccccc2/C1=C/c1cn(CC(O)Cn2cc(/C=C3\C(=O)Nc4ccccc43)c3ccccc32)c2ccccc12 (centres undefined)
1.8 µM

Now the same for "COc1cc(-c2cc3ncccc3c3[nH]c(=O)c4cccnc4c23)cc(OC)c1OC"
12.2 µM
